target: Envelope glycoprotein gp160 (Human immunodeficiency virus type 1 group M subtype B (isolate HXB2)(HIV-1), UniProt P04578); assay: Tested for inhibition of HIV gp120-CD4 interaction in an ELISA based binding assay using recombinant CD4-gp120
measurement-type: pIC50
Here pIC50 is given on a logarithmic scale as minus log10 of the concentration in mol/L.

Field pIC50 (entry COC(=O)C(=O)N1CCC[C@@H]1C(=O)N[C@H](Cc1ccccc1)C(=O)OCc1ccccc1 ) reads 3.60
